Experiment: in vitro
Conditions: human, Caco-2
condition met means recorded Papp A→B at 2 h, 10 µM is 4 ×10⁻⁶ cm/s or above; condition not met means it is below 4 ×10⁻⁶ cm/s.

COMPOUND	CAT
CC(=O)N1CCN(c2ccc(OCC3COC(Cn4ccnc4)(c4ccc(Cl)cc4Cl)O3)cc2)CC1 (configuration not stated) [KETOCONAZOLE]	condition met
CN/C(=N/CCSCc1nc[nH]c1C)NC#N [CIMETIDINE]	condition not met
CCc1c2c(nc3ccc(OC(=O)N4CCC(N5CCCCC5)CC4)cc13)-c1cc3c(c(=O)n1C2)COC(=O)[C@]3(O)CC [IRINOTECAN]	condition not met
CC(C)CN(C[C@@H](O)[C@H](Cc1ccccc1)NC(=O)O[C@H]1CCOC1)S(=O)(=O)c1ccc(N)cc1	condition met
O=C1CN(/N=C/c2ccc([N+](=O)[O-])o2)C(=O)N1 [NITROFURANTOIN]	condition not met
CCC1=C[C@@H]2CN(C1)Cc1c([nH]c3ccccc13)[C@@](C(=O)OC)(c1cc3c(cc1OC)N(C)[C@H]1[C@@](O)(C(=O)OC)[C@H](OC(C)=O)[C@]4(CC)C=CCN5CC[C@]31[C@@H]54)C2 [VINORELBINE]	condition not met
